# key: entry, value: IC50, IL-8 release, HEKa stimulated with IL-36β
- SUBJECT_OF_TEST: human IL-1RAcP on cells (human, UniProt Q9NPH3 21-570)
- METHOD: cell-based or functional assay
Answer format: numeric, pM implied, no suffix.

State its IC50, IL-8 release, HEKa stimulated with IL-36β: R001032 (1A05) (antibody, human IgG1, kappa, V domains shown, Rabbit variable domains of prior art 1A05 on human IgG1 kappa constant regions with AEASS; also called P013.S.01.B.A05) VH: LEQSGGGAEGGLVKPGGSLELCCKASGFSLSTSYWRCWVRQAPGKGLEWIGCIYAGSGDVTYYANWVNGRFTLSRDIDQSTGCLQLNSLTAADTAMYYCASGVGFGYFNLWGQGTLVTVSS VL: ALVMTQTPSPVSAAVGGTVTINCQASEDIYSNLAWFQQKPGQPPKLLIYDASTLASGVPSRFSGSGSGTEFTLTISGLQSDDAATYYCLGVYTHISADNAFGGGTEVVVKR
120

Specify reported IC50, IL-8 release, HEKa stimulated with IL-36β for the binder shown: R001031 (CAN04) (antibody, human IgG1, kappa, V domains shown, Variable domains of prior art CAN04 on human IgG1 kappa constant regions with AEASS) VH: QVQLVQSGAEVKKPGSSVKVSCKASGYAFSSSWMNWVRQAPGQGLEWMGRIYPGDGNTHYAQKFQGRVTLTADKSTSTAYMELSSLRSEDTAVYYCGEGYLDPMDYWGQGTLVTVSS VL: DIQMTQSPSSLSASVGDRVTITCSASQGINNYLNWYQQKPGKAPKLLIHYTSGLHAGVPSRFSGSGSGTDYTLTISSLQPEDVATYYCQQYSILPWTFGGGTKVEIKR
20

Recall and state the measured IC50, IL-8 release, HEKa stimulated with IL-36β for h11C5 YKD (antibody, human IgG1, kappa, V domains shown, Variable domains of h11C5 YKD on the same modified IgG1 kappa constant regions (AEASS); Printed as 'h1105' in much of the text; also called h1105) VH: EVQLVESGGGLVQPGGSLRLSCAASGFTFSNYAMSWVRQAPGKGLEWVATVTEGGDYNYYLDDVKGRFTISRDNAKNSLYLQMNSLRAEDTAVYYCARDDWPYFFDYWGQGTLVTVSS VL: DIQMTQSPSSLSASVGDRVTITCRASENIYSNLAWYQQKPGKSPKLLVYGYKNLADVPSRFSGSGSGTDYTLTISSLQPEDFATYYCQHFKTTPRTFGGGTKVEIKR .
1980
